target: mGlu8 (Homo sapiens (Human), UniProt O00222); experiment: Agonist activity on mGlu8 in transfected HEK293 cells, intracellular calcium release (Fluo4-AM); type: cell-based; conditions: ratio of mGlu8 EC50 to mGlu4 EC50
Sequence (O00222 34-908): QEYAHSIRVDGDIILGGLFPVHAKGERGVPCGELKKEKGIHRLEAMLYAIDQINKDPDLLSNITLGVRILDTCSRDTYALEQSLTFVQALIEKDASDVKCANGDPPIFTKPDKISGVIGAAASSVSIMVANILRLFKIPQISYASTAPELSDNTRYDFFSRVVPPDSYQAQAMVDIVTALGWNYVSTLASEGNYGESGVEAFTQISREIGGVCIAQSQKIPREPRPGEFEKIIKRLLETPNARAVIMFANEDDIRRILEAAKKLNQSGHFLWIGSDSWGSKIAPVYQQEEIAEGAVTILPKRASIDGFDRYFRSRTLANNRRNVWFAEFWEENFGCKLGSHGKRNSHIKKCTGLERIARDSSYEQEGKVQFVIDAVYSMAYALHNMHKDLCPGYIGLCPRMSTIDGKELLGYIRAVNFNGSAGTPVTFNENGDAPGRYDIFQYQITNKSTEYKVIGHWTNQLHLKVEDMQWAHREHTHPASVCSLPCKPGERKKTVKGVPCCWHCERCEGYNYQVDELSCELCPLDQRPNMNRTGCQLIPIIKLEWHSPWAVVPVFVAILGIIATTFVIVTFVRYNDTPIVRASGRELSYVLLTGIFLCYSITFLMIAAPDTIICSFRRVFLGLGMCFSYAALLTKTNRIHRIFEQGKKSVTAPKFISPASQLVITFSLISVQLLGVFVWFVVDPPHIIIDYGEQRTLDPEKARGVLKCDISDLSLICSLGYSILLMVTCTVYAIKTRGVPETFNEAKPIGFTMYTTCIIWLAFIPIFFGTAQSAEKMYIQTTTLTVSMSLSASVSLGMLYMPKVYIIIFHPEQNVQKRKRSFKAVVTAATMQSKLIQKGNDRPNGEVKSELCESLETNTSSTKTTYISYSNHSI
Threshold check on mGlu8/4 EC50 ratio: strictly below 6 is true; on or above 6 is false.

N[C@@H](CCP(=O)(O)Cc1ccc(OCC(=O)O)c(OC(F)(F)F)c1)C(=O)O (stereo in doubt); false
Cc1cc(C(O)P(=O)(O)CC[C@H](N)C(=O)O)cc(C)c1OCC(=O)O (some centres unmarked); false
COc1cc(C(O)P(=O)(O)CC[C@H](N)C(=O)O)cc(OC)c1OCC(=O)O (some centres unmarked); false
N[C@@H](CCP(=O)(O)C(O)c1cc(F)c(OCC(=O)O)c(F)c1)C(=O)O (stereo in doubt); false
N[C@@H](CCP(=O)(O)Cc1ccc(OCC(=O)O)cc1)C(=O)O; false
COc1cc(C(O)P(=O)(O)CC[C@H](N)C(=O)O)ccc1OCC(=O)O (some centres unmarked); false
N[C@@H](CCP(=O)(O)C(O)c1ccc(OCC(=O)O)c(C(F)(F)F)c1)C(=O)O (stereo in doubt); false
N[C@@H](CCP(=O)(O)C(O)c1ccc(OCP(=O)(O)O)cc1)C(=O)O (some centres unmarked); false

Prompt: Dear colleague, could you confirm whether mGlu8/4 EC50 ratio of COc1cc(C(O)P(=O)(O)CC[C@H](N)C(=O)O)cc(I)c1OCC(=O)O (some centres unmarked) falls below 6? Thanks.
Response: false

Prompt: mGlu8/4 EC50 ratio under 6? Item: N[C@@H](CCP(=O)(O)C(O)c1ccc(OCCO)cc1)C(=O)O (some centres unmarked)
Response: true

Prompt: Given the entry N[C@@H](CCP(=O)(O)C(O)c1ccc(OCC(=O)O)c(C(=O)O)c1)C(=O)O (stereo in doubt) , would its reported mGlu8/4 EC50 ratio be below 6?
Response: true

Prompt: Given COc1cc(CP(=O)(O)CC[C@H](N)C(=O)O)ccc1OCC(=O)O (stereo in doubt) , is recorded mGlu8/4 EC50 ratio strictly lower than 6?
Response: false

---

molecular target: UniProt O00222; test: Agonist activity on mGlu8 in transfected HEK293 cells, intracellular calcium release (Fluo4-AM); assay type: cell-based; conditions: transfected cells, calcium release; read-out: mGlu8 EC50 μM (n)
READOUT NAME: EC50

N[C@@H](CCP(=O)(O)Cc1ccc(OCC(=O)O)c(OC(F)(F)F)c1)C(=O)O (stereo in doubt); > 100 µM
N[C@@H](CCP(=O)(O)Cc1ccc(OCC(=O)O)cc1)C(=O)O; > 100 µM
N[C@@H](CCP(=O)(O)Cc1ccc(OCC(=O)O)c(C(F)(F)F)c1)C(=O)O (stereo in doubt); > 100 µM

Lab note: next compound to report on.
Prompt: Which EC50 value is on record for COc1cc(CP(=O)(O)CC[C@H](N)C(=O)O)ccc1OCC(=O)O (stereo in doubt) ?
Response: > 300 µM
